target: FGFR1 (Homo sapiens, UniProt P11362); construct: made in house; host or cells: E. coli derived from BL21, infected with T7 phage; assay: Kinase binding assay (kinase-tagged T7 phage, qPCR), Kd; conditions: read-out: FGFR1 (Kd nM)
Sequence (P11362 22-822): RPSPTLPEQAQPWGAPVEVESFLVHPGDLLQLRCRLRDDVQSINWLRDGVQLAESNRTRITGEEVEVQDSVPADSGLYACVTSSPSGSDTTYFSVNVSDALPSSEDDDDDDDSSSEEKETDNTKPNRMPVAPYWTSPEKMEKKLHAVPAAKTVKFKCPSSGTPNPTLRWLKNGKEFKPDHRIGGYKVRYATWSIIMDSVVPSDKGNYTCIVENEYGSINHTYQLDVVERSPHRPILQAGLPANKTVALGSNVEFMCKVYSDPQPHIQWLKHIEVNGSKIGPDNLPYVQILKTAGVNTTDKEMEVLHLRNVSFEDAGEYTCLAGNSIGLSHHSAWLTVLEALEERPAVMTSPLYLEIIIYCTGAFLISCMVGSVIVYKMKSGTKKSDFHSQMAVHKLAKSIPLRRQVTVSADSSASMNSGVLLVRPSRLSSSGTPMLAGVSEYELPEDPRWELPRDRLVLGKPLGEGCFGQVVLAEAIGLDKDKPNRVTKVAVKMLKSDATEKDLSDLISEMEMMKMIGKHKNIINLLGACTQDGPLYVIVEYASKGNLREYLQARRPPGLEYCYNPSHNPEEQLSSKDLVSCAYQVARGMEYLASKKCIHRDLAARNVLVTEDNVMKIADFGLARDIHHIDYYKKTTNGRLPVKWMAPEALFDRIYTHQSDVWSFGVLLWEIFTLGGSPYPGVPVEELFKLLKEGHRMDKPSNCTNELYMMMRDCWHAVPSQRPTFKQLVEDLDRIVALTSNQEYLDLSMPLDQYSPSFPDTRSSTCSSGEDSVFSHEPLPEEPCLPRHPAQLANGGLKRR

| compound | Kd |
| --- | --- |
| C[C@@H](Oc1ccc2[nH]nc(-c3cnc4c(c3)N(CCN3CCOCC3)CCO4)c2c1)c1c(Cl)cncc1Cl | > 1000 nM |
| CCOc1cc(-c2n[nH]c3ccc(O[C@H](C)c4c(Cl)cncc4Cl)cc23)cnc1N | > 1000 nM |
| C[C@@H](Oc1ccc2[nH]nc(-c3cc(C#N)cc(C4CC4)c3)c2c1)c1c(Cl)cncc1Cl | > 1000 nM |
| Cc1cc(-c2n[nH]c3ccc(O[C@@H](C)c4c(C)cnnc4C)cc23)cc(C#N)n1 | > 1000 nM |
| C[C@@H](Oc1ccc2[nH]nc(-c3ccc(NC(=O)N4CCOCC4)nc3)c2c1)c1c(Cl)cncc1Cl | 0.1 to 100 nM |
| COc1cc(-c2n[nH]c3ccc(O[C@H](C)c4c(Cl)cncc4Cl)cc23)cnc1N | 250 to 1000 nM |
| COc1cc(-c2n[nH]c3ccc(O[C@H](C)c4c(Cl)cncc4Cl)cc23)cc(C#N)c1OC1CCN(C(C)C)CC1 | 250 to 1000 nM |

Provenance of the data: patent US20240316022A1
